- Tested on: RXF 393 renal
- assay: NCI-60 one-dose screen, 48 h (100 = growth as untreated, 0 = no growth, -100 = all killed)
- conditions: 10 µM unless noted
- Protocol: Cells are grown in 96 well plates and exposed to the test compound for 48 hours. Compounds are tested at a single concentration, which is 10^-5 M for most compounds. The reported endpoint is percent growth (GI% or GIPRCNT), where numbers from 0 - 100% represent growth inhibition, and numbers from -100% - 0 represent cell death. For example, a value of 40 represents 60% growth inhibition. A value of 0 means no net growth occurred over the course of the experiment. […]
Compounds without any hit were thinned out: in the full panel of roughly 83,000, 20% have a hit.
measured quantity: growth (%)
Only the number, expressed in %, is required.

Completed entries (count: 4):
{"columns": ["compound", "growth (%)"],
 "data": [
  ["C=C1CC[C@@H]2[C@]3(C)COC(c4cn[nH]c4-c4ccc(OC)cc4)O[C@@H]3CC[C@@]2(C)[C@@H]1C/C=C1/C(=O)OCC1O (some centres undefined)", -58.5],
  ["COc1cc(C2CC(c3cc(OC)c(OC)c(OC)c3)=NN2c2ccccc2)ccc1OCc1ccc(C)cc1 (centres undefined)", 101],
  ["Nc1nc(C(F)(F)F)cs1", 112],
  ["COc1ccc(/C=C2\\C(=O)Nc3ccc(Cl)cc32)cc1OCc1ccccn1", 2.03]
]}

[in] // returns reported growth for input O=C(N/N=C/c1ccc(-c2ccc(O)cc2)o1)c1[nH]c2ccc(Br)cc2c1-c1ccccc1
[out] -10

[in] Same question for O=C(C1=CNC(=S)NC1c1ccc(O)cc1)c1cc2ccccc2oc1=O (centres undefined) please.
[out] 109

[in] Also NC(=S)Nc1cccc(NC(N)=S)c1 , if possible.
[out] 104

[in] Thanks! And O=C(c1ccc(OCCN2CCOCC2)cc1)C1[C@H](c2ccc(Cl)cc2)[C@@H](c2ccccc2)NC12C(=O)Nc1ccc(Cl)cc12 (some centres undefined) ?
[out] 2.65

[in] // next record COc1ccc2c(c1)c(-c1cc3nc(-c4cn(C)c5ncc(Br)cc45)cc(N)n3n1)cn2C
[out] -72.9

Origin of values: PubChem BioAssay (NCI)
